target: human JAK3 (a.a. 781-1124) (Homo sapiens, UniProt P52333); construct: JAK3 (a.a. 781-1124); His tag (N); made in house; host or cells: insect cells (baculovirus); test: In vitro JAK kinase assay (HTRF, phosphorylation of a biotinylated peptide), JAK3; type: biochemical; details: method AA1 (3 μM ATP) or AA2 (1000 μM ATP), not stated per value
Sequence (P52333 781-1124): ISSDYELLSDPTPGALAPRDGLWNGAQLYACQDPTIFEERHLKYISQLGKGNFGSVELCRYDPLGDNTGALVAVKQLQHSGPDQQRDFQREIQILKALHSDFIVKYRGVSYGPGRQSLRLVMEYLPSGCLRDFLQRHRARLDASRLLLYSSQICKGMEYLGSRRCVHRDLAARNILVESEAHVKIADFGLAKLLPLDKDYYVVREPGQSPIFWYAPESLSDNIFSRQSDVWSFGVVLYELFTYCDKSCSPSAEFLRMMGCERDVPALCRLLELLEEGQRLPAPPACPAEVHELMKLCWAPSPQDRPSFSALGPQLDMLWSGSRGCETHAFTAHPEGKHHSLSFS
Counter-ions that a name gives are not always drawn.
measured_property: IC50 (nM)

| compound | unit_tag | readout_number |
| --- | --- | --- |
| N[C@@H](CO)C(=O)Nc1ccc2cc1CCc1cccc(c1)Nc1ncc(Cl)c(n1)N2 [Example A109, bis(trifluoroacetate)] | nM | 7.3 |
| O=C(CC1CCN(C(=O)c2cnon2)CC1)Nc1ccc2cc1CCc1cncc(c1)Nc1ncc(Cl)c(n1)N2 [Example A138, bis(trifluoroacetate)] | nM | 30 |
| O=C(CC1CCN(C(=O)c2ncco2)CC1)Nc1ccc2cc1CCc1cncc(c1)Nc1ncc(Cl)c(n1)N2 [Example A139, bis(trifluoroacetate)] | nM | 178 |
| O=C(CC1CCN(C(=O)Nc2ccccc2)CC1)Nc1ccc2cc1CCc1cncc(c1)Nc1ncc(Cl)c(n1)N2 [Example A77, bis(trifluoroacetate)] | nM | 35 |

I = O=C(CC1CCN(C(=O)c2c[nH]nn2)CC1)Nc1ccc2cc1CCc1cncc(c1)Nc1ncc(Cl)c(n1)N2 [Example A137, bis(trifluoroacetate)]
II = Cc1cc(C(=O)N2CCC(C(=O)Nc3ccc4cc3CCc3cccc(c3)Nc3ncc(Cl)c(n3)N4)CC2)no1 [Example A120, trifluoroacetate]
I'm curious, which of these has a smaller IC50 number: I or II ? The response must carry the label of the picked entry.
I
